Just for reference, patent US20240197652A1 is where these values come from.

Assay: Mean plasma ketamine, HNK and norketamine, all subjects of Examples 7-10
Format: in vivo, human
Conditions: human, plasma, other: sublingual, 50 minutes post-administration, 100 mg racemic ketamine sublingual, analyte = label
test-readout: concentration at 50 min (ng/mL)

                                   molecule             test_readout  value_measured
0  CNC1(c2ccccc2Cl)CCCCC1=O (racemic) [ketamine]  concentration at 50 min             288
1  NC1(c2ccccc2Cl)CCCCC1=O (racemic) [Norketamine, (R,S)-norketamine]  concentration at 50 min             505

---

Assay: Mean plasma ketamine, HNK and norketamine, all subjects of Examples 7-10
Format: in vivo, human
Conditions: human, plasma, other: sublingual, 70 minutes post-administration, 100 mg racemic ketamine sublingual, analyte = label
test-readout: concentration at 70 min (µg/mL)

In [3]: df
Out[3]:
                                   compound             test_readout  value_measured
0  NC1(c2ccccc2Cl)CCCCC1=O (racemic) [Norketamine, (R,S)-norketamine]  concentration at 70 min           0.751
1  CNC1(c2ccccc2Cl)CCCCC1=O (racemic) [ketamine]  concentration at 70 min           0.263

---

The reader will find reported concentration at 20 min values listed item by item below.
Assay: Mean plasma ketamine, HNK and norketamine, all subjects of Examples 7-10
Format: in vivo, human
Conditions: human, plasma, other: sublingual, 20 minutes post-administration, 100 mg racemic ketamine sublingual, analyte = label
test-readout: concentration at 20 min

In [3]: df
Out[3]:
                                   compound  value_measured
0  NC1(c2ccccc2Cl)CCCCC1=O (racemic) [Norketamine, (R,S)-norketamine]      57.4 ng/mL
1        CNC1(c2ccccc2Cl)CCCCC1=O (racemic)       230 ng/mL

---

Assay: Mean plasma ketamine, HNK and norketamine, all subjects of Examples 7-10
Format: in vivo, human
Conditions: human, plasma, other: sublingual, 80 minutes post-administration, 100 mg racemic ketamine sublingual, analyte = label
In this section we review reported concentration at 80 min values for a set of compounds.
test-readout: concentration at 80 min (ng/mL)

>>> df
                                   compound  value_measured
0  NC1(c2ccccc2Cl)CCCCC1=O (racemic) [Norketamine, (R,S)-norketamine]             724
1  CNC1(c2ccccc2Cl)CCCCC1=O (racemic) [ketamine]             228

---

Assay: Mean plasma ketamine, HNK and norketamine, all subjects of Examples 7-10
Type: in vivo, human
Settings: human, plasma, other: sublingual, 90 minutes post-administration, 100 mg racemic ketamine sublingual, analyte = label
Experimental: Blood samples were collected every 10 minutes, from 0 minutes (the time of administration) to 90 minutes post-administration. Blood samples at each time point were analysed to determine plasma levels of (2S,6S;2R,6R)-Hydroxynorketamine (HNK). FIGS. 11-13 illustrate ketamine, HNK, and norketamine levels, respectively, for all subjects of EXAMPLES 7-10, while FIG. 14 illustrates the mean plasma levels of ketamine, HNK, and norketamine for all subjects of EXAMPLES 7-10. […]
test-readout: concentration at 90 min (ng/mL)

>>> print(df.to_string())
                                   compound  value_measured
0  NC1(c2ccccc2Cl)CCCCC1=O (racemic) [Norketamine, (R,S)-norketamine]             654
1        CNC1(c2ccccc2Cl)CCCCC1=O (racemic)             177

---

Experiment: Mean plasma ketamine, HNK and norketamine, all subjects of Examples 7-10
Type: in vivo, human
Settings: human, plasma, other: sublingual, 10 minutes post-administration, 100 mg racemic ketamine sublingual, analyte = label
Description: Blood samples were collected every 10 minutes, from 0 minutes (the time of administration) to 90 minutes post-administration. Blood samples at each time point were analysed to determine plasma levels of (2S,6S;2R,6R)-Hydroxynorketamine (HNK). FIGS. 11-13 illustrate ketamine, HNK, and norketamine levels, respectively, for all subjects of EXAMPLES 7-10, while FIG. 14 illustrates the mean plasma levels of ketamine, HNK, and norketamine for all subjects of EXAMPLES 7-10. […]
Below: a set of entries, each annotated with reported concentration at 10 min.
test-readout: concentration at 10 min (ng/mL)

                                   compound  value_measured
0  NC1(c2ccccc2Cl)CCCCC1=O (racemic) [Norketamine, (R,S)-norketamine]            1.92
1        CNC1(c2ccccc2Cl)CCCCC1=O (racemic)             105

---

Listing of recorded concentration at 60 min by entry.
Assay: Mean plasma ketamine, HNK and norketamine, all subjects of Examples 7-10
Type: in vivo, human
Conditions: human, plasma, other: sublingual, 60 minutes post-administration, 100 mg racemic ketamine sublingual, analyte = label
test-readout: concentration at 60 min (ng/mL)

>>> print(df.to_string())
                                   molecule   unit  value_measured
0        CNC1(c2ccccc2Cl)CCCCC1=O (racemic)  ng/mL             272
1  NC1(c2ccccc2Cl)CCCCC1=O (racemic) [Norketamine, (R,S)-norketamine]  ng/mL             647
